- Test system: Rattus norvegicus
- protocol-notes: Antidyslipidemic activity against triton WR1339-induced hyperlipidemia in rat assessed as reduction in plasma triglyceride level at 56 umol/kg, ip after 24 hrs (reference value: 580%)
- Type: functional
- Design: scale not given: the % may be the effect or the level left
Hi there, I'd appreciate the recorded Activity for every entry that follows.
Give bare numbers, in %.

Below, each entry is followed by its recorded Activity result.
>>> recorded_number("CN1CC(O)(c2ccc(-c3ccccc3)cc2)OC2CCCCC21 (stereo unspecified)")
49
>>> recorded_number("CC(C)(C)c1cc(C(=O)O)cc(C(C)(C)C)c1O")
26
>>> recorded_number("CC(C)(Sc1cc(C(C)(C)C)c(O)c(C(C)(C)C)c1)Sc1cc(C(C)(C)C)c(O)c(C(C)(C)C)c1")
11
>>> recorded_number("Br.CN1CC(O)(c2ccc(-c3cc(C(C)(C)C)c(O)c(C(C)(C)C)c3)cc2)OC2CCCCC21 (stereo unspecified)")
76
>>> recorded_number("CCC(C)(C)C(=O)O[C@H]1C[C@@H](C)C=C2C=C[C@H](C)[C@H](CC[C@@H]3C[C@@H](O)CC(=O)O3)[C@H]21")
0

Now consider the entry below.
Measured Activity of Br.CC(C)(C)c1cc(-c2ccc(C3(O)CN4CCCCC4CO3)cc2)cc(C(C)(C)C)c1O (stereo unspecified) : 68
